The measurements presented in this section are drawn from ChEMBL document CHEMBL1146995.

# subject_of_test: Retinoic acid receptor RXR-alpha (Homo sapiens)
# Sequence (P19793 whole entry): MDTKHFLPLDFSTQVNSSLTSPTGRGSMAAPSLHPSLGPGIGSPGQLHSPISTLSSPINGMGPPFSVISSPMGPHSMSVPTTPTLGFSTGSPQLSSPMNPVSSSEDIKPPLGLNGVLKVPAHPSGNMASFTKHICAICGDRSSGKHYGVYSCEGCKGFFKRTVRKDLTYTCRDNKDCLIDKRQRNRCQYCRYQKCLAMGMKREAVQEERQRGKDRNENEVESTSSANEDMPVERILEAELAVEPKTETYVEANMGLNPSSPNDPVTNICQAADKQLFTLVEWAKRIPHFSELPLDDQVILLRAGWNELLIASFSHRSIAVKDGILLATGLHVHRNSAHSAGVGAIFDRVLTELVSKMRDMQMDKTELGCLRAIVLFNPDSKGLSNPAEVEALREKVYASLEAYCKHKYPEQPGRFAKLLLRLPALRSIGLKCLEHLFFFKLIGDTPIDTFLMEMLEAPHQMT
# protocol: Transactivation of RXRalpha in CV1 cells by cotransfection assay
# Assay type: functional, cell-based, CV-1
# condition_context: read-out: EC50
pEC50: −log10 of the molar value.
measurement_type: pEC50

CCCN(C/C=C/C(C)=C/C(=O)O)c1cc(C(C)(C)C)cc(C(C)(C)C)c1 ... 7.00
CCCCN(C/C=C/C(C)=C/C(=O)O)c1cc(C(C)(C)C)cc2c1CCC2(C)C ... 7.28

P = CCCN(C/C=C/C(C)=C/C(=O)O)c1cc(C(C)(C)C)cc2c1CCC2(C)C
Q = CCCN(C/C=C/C(C)=C/C(=O)O)c1ccc2c(c1)C(C)(C)CCC2(C)C
R = CC(/C=C/CN(C)c1cc(C(C)(C)C)cc(C(C)(C)C)c1)=C\C(=O)O
Ordering criterion: pEC50; begin with the maximum. Write out the labels following the order that was asked for.
P, Q, R
(P: 7.66, Q: 6.82, R: 6.42)

###

# subject_of_test: Retinoic acid receptor RXR-gamma (Homo sapiens)
# Sequence (P48443 whole entry): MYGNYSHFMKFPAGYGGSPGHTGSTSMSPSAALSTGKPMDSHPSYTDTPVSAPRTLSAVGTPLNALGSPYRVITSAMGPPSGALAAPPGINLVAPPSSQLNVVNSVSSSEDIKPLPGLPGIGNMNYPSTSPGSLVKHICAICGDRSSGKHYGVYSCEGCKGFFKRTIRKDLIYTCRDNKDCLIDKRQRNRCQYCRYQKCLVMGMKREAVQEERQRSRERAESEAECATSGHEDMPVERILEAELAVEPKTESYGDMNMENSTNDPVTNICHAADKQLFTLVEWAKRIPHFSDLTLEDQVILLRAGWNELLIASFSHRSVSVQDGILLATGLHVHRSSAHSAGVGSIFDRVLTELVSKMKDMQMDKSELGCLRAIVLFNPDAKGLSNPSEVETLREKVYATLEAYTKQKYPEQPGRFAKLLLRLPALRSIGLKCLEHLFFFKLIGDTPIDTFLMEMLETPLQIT
# protocol: Binding affinity to RXRgamma
# condition_context: read-out: Ki
measurement_type: Ki (µM)

CC(C)=CCN(C/C=C/C(C)=C/C(=O)O)c1cc(C(C)(C)C)cc2c1CCC2(C)C ... 0.309

a = CCCN(C/C=C/C(C)=C/C(=O)O)c1cc2c(cc1OC)C(C)(C)CCC2(C)C
b = CC(/C=C/CN(CC1CC1)c1cc(C(C)(C)C)cc2c1CCC2(C)C)=C\C(=O)O
c = CCCN(C(=O)/C=C/C(C)=C/C(=O)O)c1cc(C(C)(C)C)cc(C(C)(C)C)c1
Ordering criterion: Ki; begin with the maximum. Write out the labels following the order that was asked for.
a, c, b

###

# subject_of_test: Retinoic acid receptor RXR-beta (Homo sapiens, UniProt P28702)
# Sequence (P28702 whole entry): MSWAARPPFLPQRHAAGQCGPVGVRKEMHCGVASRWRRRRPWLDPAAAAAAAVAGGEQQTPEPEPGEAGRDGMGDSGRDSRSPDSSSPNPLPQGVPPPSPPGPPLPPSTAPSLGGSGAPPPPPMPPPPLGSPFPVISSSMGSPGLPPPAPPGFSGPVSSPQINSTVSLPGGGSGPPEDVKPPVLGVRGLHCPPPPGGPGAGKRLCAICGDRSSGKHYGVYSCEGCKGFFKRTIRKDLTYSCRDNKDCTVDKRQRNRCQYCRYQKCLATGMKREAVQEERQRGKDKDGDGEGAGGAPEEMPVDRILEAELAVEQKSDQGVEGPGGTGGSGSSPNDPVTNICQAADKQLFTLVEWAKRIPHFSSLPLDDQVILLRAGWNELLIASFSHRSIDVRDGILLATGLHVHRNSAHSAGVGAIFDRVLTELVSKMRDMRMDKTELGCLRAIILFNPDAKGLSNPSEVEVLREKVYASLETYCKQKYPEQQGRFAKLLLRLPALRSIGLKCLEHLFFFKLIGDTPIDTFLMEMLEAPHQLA
# protocol: Transactivation of RXRbeta in CV1 cells by cotransfection assay
# Type: functional, cell-based, CV-1
# condition_context: read-out: EC50
pEC50: −log10 of the molar value.
measurement_type: pEC50

CCCN(C(=O)/C=C/C(C)=C/C(=O)O)c1cc(C(C)(C)C)cc(C(C)(C)C)c1 ... 6.82
CC(/C=C/CN(c1cc(C(C)(C)C)cc2c1CCC2(C)C)C(C)C)=C\C(=O)O ... 6.67

I = CCN(C/C=C/C(C)=C/C(=O)O)c1ccc2c(c1)C(C)(C)CCC2(C)C
II = CC(/C=C/[C@H]1CCCN1c1ccc2c(c1)C(C)(C)CCC2(C)C)=C\C(=O)O
III = CC(/C=C/CN(C)c1cc(C(C)(C)C)cc(C(C)(C)C)c1)=C\C(=O)O
Arrange the 3 molecules by rising pEC50, starting with the smallest. Write out the labels following the order that was asked for.
II, I, III
